Where do these numbers come from? They come from patent US20080139607A1.

# experimental.system: Recombinant human PAI-1 (Homo sapiens)
# Sequence (P05121 24-402): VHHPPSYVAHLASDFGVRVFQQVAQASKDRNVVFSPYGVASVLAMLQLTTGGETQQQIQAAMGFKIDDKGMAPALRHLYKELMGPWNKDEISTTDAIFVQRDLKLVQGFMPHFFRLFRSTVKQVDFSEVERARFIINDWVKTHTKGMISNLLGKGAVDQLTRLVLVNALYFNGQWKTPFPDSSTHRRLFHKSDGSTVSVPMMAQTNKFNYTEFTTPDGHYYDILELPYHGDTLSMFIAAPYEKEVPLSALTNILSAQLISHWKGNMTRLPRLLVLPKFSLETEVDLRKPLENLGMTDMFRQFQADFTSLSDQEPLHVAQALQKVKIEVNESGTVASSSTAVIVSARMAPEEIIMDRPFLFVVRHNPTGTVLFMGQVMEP
# assay.protocol: Plasma clot lysis assay for testing of PAI-1 inhibitors (clot lysis in platelet-poor plasma)
# test.parameters: concentration at which clot lysis time is halved (pIC50=-log IC50); platelet-poor plasma 50%, PAI-1 10-13 ng/mL, t-PA 34 ng/mL, 37° C.
parameter.measured: IC50 (µM)
Could you give me the number in µM? Just the number is fine.

• CCCCCCCc1cc(=O)n2c(c1-c1ccc(F)c(F)c1)SC[C@@H]2C(N)=O = 50.1
• CCCCCCCc1c(-c2ccc(F)c(F)c2)c2n(c(=O)c1C(=O)O)[C@H](C(=O)OC)CS2 = 20
• CC(C)CCc1c(-c2cccc(C(F)(F)F)c2)c2n(c(=O)c1N)[C@H](C(=O)O)CS2 = 79.4

Data request: If you can, please state the reported IC50 value of CCCCCCCc1cc(=O)n2c(c1-c1ccc(F)c(F)c1)S[C@H](c1ccccc1)[C@H]2C(=O)O .
Data returned: 5.01
